test.protocol: Cytotoxicity towards RAW macrophages
Type: cell-based
cond: mouse, read-out: TC50, cytotoxicity towards RAW macrophages
quantity: CC50 at 72 h

>>> reported("COC(=O)C(=O)[C@H](CC(C)C)NC(=O)[C@H](CCCCN)NC(=O)[C@H](Cc1ccccc1)NC(=O)OCc1ccccc1")
"> 100 µM"

---

System: Mtb in THP-1 macrophages
test.protocol: Antitubercular activity (Mtb survival) in THP-1 macrophages
Type: cell-based, Mycobacterium tuberculosis
cond: Mycobacterium tuberculosis, THP1MACROPHAGES; THP-1 macrophages, time point 48 h; read-out: IC50 Range
pIC50: −log10 of the molar value.
quantity: pIC50

>>> reported("COC(=O)C(=O)[C@H](C[C@@H]1CCNC1=O)NC(=O)[C@H](CCCCN)NC(=O)[C@H](Cc1ccccc1)NC(=O)OCc1ccccc1")
"4.22 to 4.24"
>>> reported("COC(=O)C(=O)[C@H](CC(C)C)NC(=O)[C@H](CCCCN)NC(=O)[C@H](Cc1ccccc1)NC(=O)OCc1ccccc1")
"4.53 to 4.90"
